# System: Saccharomyces cerevisiae
# methodDescription: protein stability index of tFT-peptide fusion (C-terminal peptide) (PSI (0-1 scale)); higher = more stable (slower turnover)
# assayConditions: genetic background: wild type; temperature: 30 C
Reported protein stability index values for the following sequences.

itemSequence | protein stability index
EELPSDIATLLN [YKR059W; YJL138C C-terminal 12 aa] | 0.716
VKRNKYPPRPVH [REF2 C-terminal 12 aa] | 0.74
SSSEQITSSITS [YAR062W C-terminal 12 aa] | 0.67
RCNVYIIRCIHH [YOL164W-A C-terminal 12 aa] | 0.51
QMTRNVNNNDFS [YAH1 C-terminal 12 aa] | 0.664
AIMAVACNVIFS [AGA1 C-terminal 12 aa] | 0.315
NEEYIEELDLVL [HSH155 C-terminal 12 aa] | 0.674
GKYFLKEEQDEI [YUR1 C-terminal 12 aa] | 0.706

QUERY: # query: protein stability index | item FVRKIYSSIKVD [EMP70 C-terminal 12 aa] | system: Saccharomyces cerevisiae
RESULT: 0.614

---

# Tested on: Saccharomyces cerevisiae
# methodDescription: protein stability index of tFT-peptide fusion (C-terminal peptide) (PSI (0-1 scale)); higher = more stable (slower turnover)
# assayConditions: genetic background: wild type; temperature: 30 C
Lab note: class by protein stability index, see bin 0 = under 0.6, bin 1 = from 0.6 up to 0.7, bin 2 = 0.7 and over

Some solved cases for reference:
itemSequence | studySystem | assignedClass
FVVSSLYSYSYR | Saccharomyces cerevisiae | bin 0
LFYFDTWFFPPP | Saccharomyces cerevisiae | bin 2
KVCGRIWWCPRA | Saccharomyces cerevisiae | bin 1
HSYSPRSLLVDP | Saccharomyces cerevisiae | bin 2
PSSSVICLLPPA | Saccharomyces cerevisiae | bin 1
GCGMCDPRCEHY | Saccharomyces cerevisiae | bin 2

QUERY: Which bin should I file `WYLLCESCLLCL` under?
RESULT: bin 0

QUERY: How about this sequence: `SRVSRGEWGVGI`
RESULT: bin 1

QUERY: Entry to check: `LCSYSTIPLRLY`
RESULT: bin 0

QUERY: Also check `VIWIRMISFFVW`
RESULT: bin 0

QUERY: Continue with `SFWLFSSIGVCF`
RESULT: bin 0

QUERY: `IRNDERHSKNQD` ?
RESULT: bin 2

QUERY: What do you get for `CRVAFGFMSRFV` ?
RESULT: bin 2

QUERY: Please answer likewise for `MSKTIEREGNMI`
RESULT: bin 2

QUERY: Please do the same for `TPAYTETNGLST` as well.
RESULT: bin 2

QUERY: How about this sequence: `PPLCRSFPPASL`
RESULT: bin 2

QUERY: Similarly, `GIVCGDADMEGG` ?
RESULT: bin 1

QUERY: Then `HPTFARIPPIPP` ?
RESULT: bin 0

QUERY: Now the same for `PAPSRRTVTDYW`
RESULT: bin 1

QUERY: Same for `VVGRWGFVVECW`
RESULT: bin 0

QUERY: Can you handle `PIPSVFSPFLFA` next?
RESULT: bin 1

QUERY: Moving on to `SVLVWVFGLFVI`
RESULT: bin 0

QUERY: Another: `KGVEVPGERMVG`
RESULT: bin 2

QUERY: Same read-out for `KKKKEISNEAKQ` ?
RESULT: bin 1

QUERY: Also `ARSAGITSPSKD` , if possible.
RESULT: bin 2

QUERY: For `FTEFWFFKQMSV` then?
RESULT: bin 0

QUERY: Continue with `LPRVSMTPTRVG`
RESULT: bin 1
